Test system: A549-ACE2 infected with SARS-CoV-2
test_description: SARS-CoV-2 infection rate relative to DMSO; higher = more infection
conditions_used: 0.1 µM; 24 h
measurement_label: SARS-CoV-2 infection rate

1. CN1CCN(S(=O)(=O)c2ccc(-c3cnc(N)c(C(=O)Nc4cccnc4)n3)cc2)CC1: 103%
2. Nc1ncnc2c1c(-c1cccc(OCc3ccccc3)c1)cn2C1CC(CN2CCCC2)C1 (stereo in doubt): 98%
3. O=C(c1ccc(Nc2nccc(-c3cc4ccccc4s3)n2)cc1)N1CCC(N2CCCC2)CC1: 101%
4. c1cc2c(cc1C1CCCCC1)c1c3n2CCNC3CCC1 (centres undefined): 102%
